target: Caspase-1 (Homo sapiens)
assay overview: Confirmation Assay for Allosteric/Competitive Inhibitors of Caspase-1
cond: Caspase-1 enzyme, fluorogenic peptide substrate, kinetic rate
Activity calls are given as the source filed them.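 How the source made its calls: active means compounds that inhibit caspase-1 with a complete, partial or top-dose-only concentration response; inactive means the rest.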
Provide the reported Potency of each item.

Problem: Dear colleague, I am looking for the recorded Potency of the following compound: "CCOC(=O)C[C@@H](C#N)NC(=O)[C@@H]1CCCN1C(=O)[C@@H](NC(=O)c1ccc(N)c(Cl)c1)C(C)(C)C"
Solution: 145 nM (active)

Problem: Item under review: "CC(C)(C)[C@H](NC(=O)c1ccc(C(F)(F)F)cc1)C(=O)N1CCC[C@H]1C(=O)N[C@H](C#N)CC(=O)O" . Reported Potency?
Solution: 8.33 nM (active)

Problem: // lookup Potency for "CC(C)(C)[C@H](NC(=O)c1ccc(N)c(Cl)c1)C(=O)N1CCC[C@H]1C(=O)N[C@H](C#N)CC(=O)O"
Solution: 0.316 nM (active)

Problem: Value lookup for Potency; key = "Cc1ccccc1C(=O)N[C@H](C(=O)N1CCC[C@H]1C(=O)N[C@H](C#N)CC(=O)O)C(C)(C)C"
Solution: 2.78 nM (active)

Problem: Request the reported Potency associated with "CC(C)(C)[C@H](NC(=O)c1cc(Cl)cc(Cl)c1)C(=O)N1CCC[C@H]1C(=O)N[C@H](C#N)CC(=O)O"
Solution: 0.436 nM (active)
